# tested on: T1, Cascade (Type I-E crRNA-guided surveillance complex, crRNA-loaded) (Escherichia coli K12 (expressed in …, UniProt Q46901;P76632;Q46899;Q46898;Q46897 1-502;1-160;2-363;1-224;2-199))
# T1 sequence 1: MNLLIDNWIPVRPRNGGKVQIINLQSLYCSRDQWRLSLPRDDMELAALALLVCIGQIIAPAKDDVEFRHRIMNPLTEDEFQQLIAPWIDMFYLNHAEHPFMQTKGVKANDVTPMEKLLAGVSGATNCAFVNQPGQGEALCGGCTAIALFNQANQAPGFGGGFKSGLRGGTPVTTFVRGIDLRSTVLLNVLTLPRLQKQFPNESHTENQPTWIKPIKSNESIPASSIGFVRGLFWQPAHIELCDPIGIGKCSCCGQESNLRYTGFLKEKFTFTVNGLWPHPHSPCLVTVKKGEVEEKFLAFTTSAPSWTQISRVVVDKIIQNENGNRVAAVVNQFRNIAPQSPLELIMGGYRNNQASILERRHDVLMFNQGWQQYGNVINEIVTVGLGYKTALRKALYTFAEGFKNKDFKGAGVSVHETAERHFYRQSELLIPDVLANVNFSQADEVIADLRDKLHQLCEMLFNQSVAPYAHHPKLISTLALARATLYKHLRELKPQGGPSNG
# T1 sequence 2: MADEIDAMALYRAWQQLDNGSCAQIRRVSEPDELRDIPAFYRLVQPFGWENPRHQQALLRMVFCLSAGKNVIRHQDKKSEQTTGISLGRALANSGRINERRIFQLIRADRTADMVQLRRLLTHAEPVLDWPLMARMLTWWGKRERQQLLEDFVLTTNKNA
# T1 sequence 3: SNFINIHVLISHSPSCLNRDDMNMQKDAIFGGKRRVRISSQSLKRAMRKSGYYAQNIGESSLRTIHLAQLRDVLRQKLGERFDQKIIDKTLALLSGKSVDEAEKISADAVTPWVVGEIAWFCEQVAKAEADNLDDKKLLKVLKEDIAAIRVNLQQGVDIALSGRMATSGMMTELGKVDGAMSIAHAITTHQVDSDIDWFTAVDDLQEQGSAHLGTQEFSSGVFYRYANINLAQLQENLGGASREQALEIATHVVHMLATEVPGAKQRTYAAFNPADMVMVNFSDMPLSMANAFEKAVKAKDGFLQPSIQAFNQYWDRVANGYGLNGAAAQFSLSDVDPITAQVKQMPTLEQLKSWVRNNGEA
# T1 sequence 4: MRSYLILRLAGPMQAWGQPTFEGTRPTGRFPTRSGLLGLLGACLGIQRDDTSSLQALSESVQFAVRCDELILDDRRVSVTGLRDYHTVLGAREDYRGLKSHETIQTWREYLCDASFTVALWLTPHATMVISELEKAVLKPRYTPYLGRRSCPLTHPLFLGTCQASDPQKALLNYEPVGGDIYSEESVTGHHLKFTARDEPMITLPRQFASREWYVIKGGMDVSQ
# T1 sequence 5: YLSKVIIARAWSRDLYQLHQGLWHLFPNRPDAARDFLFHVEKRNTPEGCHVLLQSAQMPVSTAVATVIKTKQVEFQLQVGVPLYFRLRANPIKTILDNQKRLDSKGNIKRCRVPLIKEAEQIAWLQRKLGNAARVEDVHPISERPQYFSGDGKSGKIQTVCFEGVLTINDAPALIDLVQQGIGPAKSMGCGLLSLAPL
# protocol details: EMSA; g8G-1T crRNA; EMSA with 32P-labelled dsDNA; buffer, salt, pH and temperature not stated (as in ref 29); Kd from fraction bound = [Cascade]/(Kd+[Cascade])
# experimental context: protein: recombinant; copies: 1;2;6;1;1; label: 5'-32P on DNA; guide / target / displaced; DNA blunt duplex
readout label: binding result

- binder: "g8G-1T crRNA + CCT PAM probe (mixed) RNA: AUAAACCUCUGUCUUUCGCUGCUGAGGGUGACGAUCCCGCGAGUUCCCCGCGCCAGCGGGG DNA 1: TTAAAGGCCGCTTTTGCGGGATCGTCACCCTCAGCAGCGAAAGACAGCCTCGGAACGAGGGTAGC DNA 2: GCTACCCTCGTTCCGAGGCTGTCTTTCGCTGCTGAGGGTGACGATCCCGCAAAAGCGGCCTTTAA"
  endpoint value: "binds"
- binder: "g8G-1T crRNA + CTT PAM probe (mixed) RNA: AUAAACCUCUGUCUUUCGCUGCUGAGGGUGACGAUCCCGCGAGUUCCCCGCGCCAGCGGGG DNA 1: TTAAAGGCCGCTTTTGCGGGATCGTCACCCTCAGCAGCGAAAGACAGCTTCGGAACGAGGGTAGC DNA 2: GCTACCCTCGTTCCGAAGCTGTCTTTCGCTGCTGAGGGTGACGATCCCGCAAAAGCGGCCTTTAA"
  endpoint value: "binds"
- binder: "g8G-1T crRNA + CAT PAM probe (mixed) RNA: AUAAACCUCUGUCUUUCGCUGCUGAGGGUGACGAUCCCGCGAGUUCCCCGCGCCAGCGGGG DNA 1: TTAAAGGCCGCTTTTGCGGGATCGTCACCCTCAGCAGCGAAAGACAGCATCGGAACGAGGGTAGC DNA 2: GCTACCCTCGTTCCGATGCTGTCTTTCGCTGCTGAGGGTGACGATCCCGCAAAAGCGGCCTTTAA"
  endpoint value: "binds"
- binder: "g8G-1T crRNA + CTC PAM probe (mixed) RNA: AUAAACCUCUGUCUUUCGCUGCUGAGGGUGACGAUCCCGCGAGUUCCCCGCGCCAGCGGGG DNA 1: TTAAAGGCCGCTTTTGCGGGATCGTCACCCTCAGCAGCGAAAGACAGCTCCGGAACGAGGGTAGC DNA 2: GCTACCCTCGTTCCGGAGCTGTCTTTCGCTGCTGAGGGTGACGATCCCGCAAAAGCGGCCTTTAA"
  endpoint value: "binds"
